The measured values listed here are drawn from PubChem BioAssay (Tox21).

# Test protocol: qHTS assay to identify small molecule agonists of the RXR signaling pathway - cell viability counter screen (AID 1159529);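 note: HEK 293T cells carrying an RXR-alpha UAS beta-lactamase reporter; nearly all actives have a fitted effect of over 50% in size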
# Measurement parameters: RXR-alpha-bla HEK293T viability, CellTiter-Glo, 16 h; series mostly up to 76.8 µM
Results filed as inconclusive are left out. Calls of active or inactive are those of the source. Calls come from the whole dose curve; as a rule, active = well fitted cell-killing curve with a large enough effect in the repeat runs; inconclusive = weak or mixed curves, or effect the other way; inactive = no such curve, though single readings can be large or run the other way.
Tick one outcome: yes = active, no = inactive

Worked cases, answers included:
Molecule: Cc1cc(Cl)ccc1OCCCC(=O)O
Group label: no
//
Molecule: CNC(=O)N(C)c1nnc(C(C)(C)C)s1
Group label: no
//
Molecule: c1nc[nH]n1
Group label: no
//
Molecule: CC(C)N(C(=O)SCC(Cl)=C(Cl)Cl)C(C)C
Group label: no
//
Molecule: CCC(C)c1cc([N+](=O)[O-])cc([N+](=O)[O-])c1O (stereo not drawn)
Group label: no
//
Molecule: Oc1cc(Cl)ccc1Cl
Group label: no

Here is another molecule to look at.
For N[C@@H](Cc1ccc(N(CCCl)CCCl)cc1)C(=O)O , what call appears in the results of this test? no

* * *

# Test protocol: qHTS assay to identify small molecule antagonists of the progesterone receptor (PR) signaling pathway - cell viability counter screen (AID 1346798); note: nearly all actives have a fitted effect of over 50% in size
# Measurement parameters: PR-UAS-bla HEK293T viability, CellTiter-Glo luminescence, 16 h; series mostly up to 92.4 µM
# Description: National Center for Advancing Translational Sciences [NCATS] NIH Chemical Genomics Center [NCGC] U.S. Environmental Protection Agency [EPA] National Institutes of Environmental Health Sciences [NIEHS] National Toxicology Program [NTP] U.S. Food and Drug Administration [FDA] Progesterone receptor (PR), a nuclear hormone receptor, plays an important role in development, metabolic homeostasis and reproduction. It is activated by the steroid hormone progesterone. […]
Records with an inconclusive call do not appear. The source made the active and inactive calls. The call rests on the fitted dose curve; in most records, active means well fitted cell-killing curve with a large enough effect in the repeat runs; inconclusive means weak or mixed curves, or effect the other way; inactive means no such curve, though single readings can be large or run the other way.
Tick one outcome: Yes for active, No for inactive

Worked cases, answers included:
Compound: CCC(=O)O[C@H]1CC[C@H]2[C@@H]3CCC4=CC(=O)CC[C@]4(C)[C@H]3CC[C@]12C
Group label: No

Compound: Clc1nc(Cl)nc(Cl)n1
Group label: No

Compound: Cc1cc(Cl)ccc1OCCCC(=O)O
Group label: No

Compound: COP(=S)(OC)Oc1ccc([N+](=O)[O-])cc1
Group label: No

Compound: Oc1cc(Cl)c(Cl)cc1Cl
Group label: No

Compound: CCCCC(CC)COC(=O)c1ccc(C(=O)OCC(CC)CCCC)c(C(=O)OCC(CC)CCCC)c1 (stereo unspecified)
Group label: No

For CCOC(=S)S , what call appears in the results of this test? Yes

For Cc1cccc(N)c1N , what call appears in the results of this test? No

For CC(C)=CC1C(C(=O)OCc2coc(Cc3ccccc3)c2)C1(C)C (stereo unspecified) , what call appears in the results of this test? No

* * *

# Test protocol: qHTS assay to identify small molecule antagonists of the vitamin D receptor (VDR) signaling pathway - cell viability counter screen (AID 743225); note: nearly all actives have a fitted effect of over 50% in size
# Measurement parameters: VDR-bla HEK293T viability, CellTiter-Glo luminescence, 16 h; series mostly up to 61 µM
Records with an inconclusive call do not appear. Activity calls are given as the source filed them. The call rests on the fitted dose curve; in most records, active means well fitted cell-killing curve with a large enough effect in the repeat runs; inconclusive means weak or mixed curves, or effect the other way; inactive means no such curve, though single readings can be large or run the other way.
Tick one outcome: active, inactive

Worked cases, answers included:
Compound: Oc1ccc(-c2ccccc2)cc1
Group label: inactive
--
Compound: C=C(C)[C@H]1Cc2c(ccc3c2O[C@@H]2COc4cc(OC)c(OC)cc4[C@@H]2C3=O)O1
Group label: inactive
--
Compound: NCc1cccnc1
Group label: inactive

For CCOC(=S)S , what call appears in the results of this test? inactive
